- Test system: HT29 colon
- Test: NCI tumour cell line growth inhibition, 48 h
Assignment: determine reported TGI for the given compounds.
One number for each entry, in µM.

// known answers, use as guide
{"columns": ["Compound", "Test value"],
 "data": [
  ["Cc1cc(N2CCSCC2)nc(NC2CCCC(Nc3ccnc4cc(Cl)ccc34)C2)n1 (configuration not stated)", 3.98],
  ["O=C(/C=C/c1ccccc1)n1c(-c2ccc(Cl)cc2)nc2ccccc21", 3.71],
  ["CCCCCCCCCCCCCCCCOC[C@@H](COC(c1ccccc1)(c1ccccc1)c1ccccc1)O[P+](=S)OC (some centres not stated)", 35.2],
  ["O=c1c(=O)c2c(Br)sc(Br)c2c1=O", 57.4],
  ["S=C(c1c[nH]c2ccccc12)N1CCN(Cc2ccccc2)CC1", 30.1]
]}

// for each compound in input: emit TGI
1. Cc1cc(CC(C)CC(C)(C)C)n(O)c(=O)c1 (configuration not stated) (tested in a mixture with another compound)
2. Clc1ccc(C2Nc3ccccc3C3=NCCN32)cc1 (configuration not stated)
3. CCCCCCCCCCCCCCCC(=O)N(CCCCCCCCCCC(=O)O)CC(O)C(O)C(OC1OC(CO)C(O)C(O)C1O)C(O)CO (configuration not stated)
4. CC(C)(C)C(=O)OC12/C(=N/O)CCCCCC1c1ccccc12 (configuration not stated)

Result block:
[17.5, 38.5, 42.8, 26]

Your task in this section: give TGI for each listed record.
1. O=C1/C(=C\c2ccccn2)c2ccccc2N1c1c(Cl)cccc1Cl
2. COc1cc(CNc2ccccc2C(=O)N2CCN(C(=O)c3cc(-c4cc(OC)c(OC)c(OC)c4)n4nc(-c5ccccc5)cc4n3)CC2)cc(OC)c1OC
3. Cc1noc(NC2=CC(=O)C(=O)c3ccccc32)c1C
4. COC(=O)N1CC2C3C4CC(C(c5ccccc5)=C4c4ccccc4)C3C21 (configuration not stated)
5. C=C(OC1C(C)=C2C(C1OC(=O)CCCCCCC)C(C)(OC(C)=O)CC(OC(=O)CCC)C1(O)C2OC(=O)C1(C)O)/C(C)=C/C (configuration not stated)
6. C=CCO[C@]1(CC=C)C(=O)C(=O)OC1C1COC(C)(C)O1 (some centres not stated)
7. CC1C2(C)OC(=N)C(C#N)(C(c3cccc([N+](=O)[O-])c3)O2)C1(C#N)C#N (configuration not stated)
8. Cc1cn2c(/C=N/N=C(N)N)c(-c3cccs3)nc2s1

Result block:
1. 5.75
2. 12
3. 88
4. 37.7
5. 1.8
6. 37.2
7. 74.6
8. 7.14

Reported TGI of `O=C(Nc1ccc(-n2ccc3c(NC(=O)c4ccccc4)ncnc32)cc1)Nc1cccc(Cl)c1Cl` : 2.11
